Tested on: SN12C renal
Test: NCI-60 one-dose screen, 48 h
Conditions: 10 µM unless noted
Compounds without any hit were thinned out: in the full panel of roughly 83,000, 20% have a hit. Calls of active or inactive are those of the source. Rule for the calls: active = growth percent below 10; inactive = the rest.
Outcomes: active, inactive

# molecule, answer label
data = [
    ("O=C(C(=O)N1CCCCC1)c1ccc(OC2OC(CO)C(O)C(O)C2O)cc1 (configuration not stated)", "inactive"),
    ("COc1ccc(/C=C2\\NC(=S)NC2=O)cc1", "inactive"),
    ("Cc1cc(CC(=O)O)n(C)c1C(=O)c1ccc(Cl)cc1", "inactive"),
    ("O=[N+]([O-])c1ccc2c(c1)S(=O)c1cc([N+](=O)[O-])ccc1N2", "inactive"),
    ("Fc1ccc(-c2nnc(-c3c(-c4ccc(F)cc4)nc4ncccn34)o2)cc1", "inactive"),
    ("COc1cc(/C=C/C(=O)c2c(-c3ccc(F)cc3)nc3sc(C)nn23)cc(OC)c1OC", "inactive"),
    ("Cc1nn(-c2ccccc2)c(Cl)c1C(CC(=O)c1ccc(Cl)cc1)CC(=O)c1ccc(Cl)cc1", "inactive"),
    ("C=C(C)[C@H]1CC/C(C)=C/CC[C@]2(C)O[C@H]2CC/C(COC(C)=O)=C\\C1=O", "inactive"),
    ("CCOC(=O)C(C(C)=O)c1nc2sc3cc(Cl)ccc3n2c(=N)c1C#N (configuration not stated)", "inactive"),
    ("CC1=C(C(=O)Nc2ccccc2)C(c2ccc3c(c2)OCCO3)NC(=O)N1 (configuration not stated)", "inactive"),
    ("CN1CCN(Cc2ccc(NC(=O)c3[nH]ncc3Nc3ccnc4ccnn34)cc2)CC1", "inactive"),
    ("O=C1c2ccccc2-c2c1nc1ccccc1[n+]2[O-]", "inactive"),
    ("COc1cc(/C=C2\\COc3ccc(O)c(O)c3C2=O)cc(OC)c1", "active"),
    ("O=C(Nc1cccc(C(F)(F)F)c1)Nc1ccc(OCc2nnc(-c3ccc(Cl)cc3)o2)c(F)c1", "inactive"),
    ("O=C(C(Br)Br)C(Br)C(Br)c1ccccc1 (configuration not stated)", "inactive"),
    ("O=C(Nc1cccc2ccccc12)c1cc2c(cc1Br)OCO2", "inactive"),
    ("CC(CCC(=O)O)(NC(=O)c1ccc([N+](=O)[O-])cc1)C(=O)O (configuration not stated)", "inactive"),
    ("O=C1C[C@@H]2/C(=C(O)\\C=C\\c3ccccc3)C(=O)C=C[C@@H]2O1", "active"),
    ("O=c1cc(-c2cccnc2)oc2c1ccc1ccccc12", "inactive"),
    ("CO[C@H]1CC(O[C@@H]2/C(C)=C/C[C@@H]3C[C@@H](C[C@]4(CC[C@H](C)[C@@H](C5CCCCC5)O4)O3)OC(=O)[C@@H]3C=C(C)/C(=N/O)[C@H]4OC/C(=C\\C=C\\[C@@H]2C)[C@]43O)O[C@@H](C)C1O (some centres not stated)", "active"),
    ("Cc1[nH]n(C(N)=S)c(=O)c1N=Nc1ccc(F)c(Cl)c1", "inactive"),
    ("CC1(C)OC(=O)C(=Cc2ccccc2Br)C(=O)O1", "inactive"),
]

----------
Test system: NCI-H460 lung
Test: NCI-60 one-dose screen, 48 h
Conditions: 10 µM unless noted
This is part of a sample that, as a whole, favours compounds with a hit. Of some 83,000 tested, about 20% had one in any assay. The source made the active and inactive calls. How the source made its calls: active means growth percent below 10; inactive means the rest.
Outcomes: 1.0 (active), 0.0 (inactive)

# compound, measured target, answer label
data = [
    ("Clc1ccc(-n2cnc3c(Cl)ncnc32)cc1Cl", "NCI-H460 lung", 0.0),
    ("COc1ccc(Cn2c(NCCCN(C)C)nc(=O)n(Cc3ccc(F)cc3)c2=O)cc1", "NCI-H460 lung", 0.0),
    ("COc1ccc2c(c1)C(=O)c1c-2c(=O)n(CCCCCCC(=O)NO)c2ccccc12", "NCI-H460 lung", 1.0),
    ("CCOC(=O)C1=C(COCCN)NC(C)=C(C(=O)OC)C1c1ccccc1Cl (stereo not given)", "NCI-H460 lung", 0.0),
    ("COc1ccc(C2CC(c3ccc(OC)c(OC)c3)=NN2C(=O)c2cc(OC)c(OC)c(OC)c2)cc1 (stereo not given)", "NCI-H460 lung", 1.0),
    ("CCN1C2=C(SC(=S)C1=C1SC(C(=O)OC)=C(C(=O)OC)S1)SC(=Nc1ccc(OC)cc1)C2=O", "NCI-H460 lung", 1.0),
    ("CSc1nc2c(c(=O)n1C)C(c1ccccc1)C1=C(N2)/C(=C/c2ccccc2)CCC1 (stereo not given)", "NCI-H460 lung", 0.0),
    ("O=C(/C=C/c1cccnc1)/C=C/c1cccnc1", "NCI-H460 lung", 0.0),
    ("Cc1[nH]n(C(N)=S)c(=O)c1N=Nc1ccc(F)c(Cl)c1", "NCI-H460 lung", 0.0),
    ("Cn1[nH]cc(/C=N/C(N)=O)c1=O", "NCI-H460 lung", 0.0),
]

----------
System: PC-3 prostate
Experiment: NCI-60 one-dose screen, 48 h (100 = growth as untreated, 0 = no growth, -100 = all killed)
Settings: 10 µM unless noted
The panel holds about 83,000 compounds, 20% with a hit somewhere; the sample as a whole holds those more often.
Decide using growth alone. Strictly below 50%: 1.0. Equal to or above 50%: 0.0.

# molecule, measured target, answer label
rows = [
    ("c1ccc2c(c1)[nH]c1c2cc[n+]2cc3c(cc12)CCCC3", "PC-3 prostate", 1.0),
    ("C=C(C)[C@H]1CC/C(C)=C/CC[C@]2(C)O[C@H]2CC/C(COC(C)=O)=C\\C1=O", "PC-3 prostate", 0.0),
    ("CN(C(=O)c1ccccc1)N(C)C(=O)c1ccccc1", "PC-3 prostate", 0.0),
    ("O=C(CSCC(=O)N/N=C/c1ccccc1O)N/N=C\\c1ccccc1O", "PC-3 prostate", 1.0),
    ("COc1ccc(C(=O)Nc2nc(-c3ccc(Cl)cc3)cs2)cc1", "PC-3 prostate", 0.0),
    ("COc1cc2c(c(OC)c1OC)-c1ccc(NN(C(=O)c3ccccc3)C(=O)c3ccccc3)c(=O)cc1[C@@H](NC(C)=O)CC2 (tested in a mixture with another compound)", "PC-3 prostate", 1.0),
    ("O=C1c2nsnc2C(=O)c2c(F)c(F)c(F)c(F)c21", "PC-3 prostate", 1.0),
    ("C=C1CC[C@@H]2[C@](C)(COC(C)=O)[C@H](OC(C)=O)CC[C@@]2(C)[C@@H]1CC(Nc1ccc(S(=O)(=O)Nc2cc(C)on2)cc1)C1=CCOC1=O (some centres not stated)", "PC-3 prostate", 0.0),
    ("COc1cc(C2C=C(c3ccc(C)cc3)Nc3nc(SC)[nH]c(=O)c32)ccc1Oc1ccnc2cc(Cl)ccc12 (configuration not stated)", "PC-3 prostate", 0.0),
    ("CCc1[nH]nc(-c2ccc(OC)cc2)c1-c1ccccc1OCCN(CC)CC", "PC-3 prostate", 0.0),
    ("CCC(CCC(C)C1CCC2C3CC=C4CC(O)CCC4(C)C3CCC12C)C(C)C (configuration not stated) (tested in a mixture with another compound)", "PC-3 prostate", 1.0),
    ("CC(C)(C)c1ccc(S(=O)(=O)O)s1", "PC-3 prostate", 0.0),
    ("CC1CC(C)/C(=N/NC(N)=O)C(C(O)CC2CCC(=O)NC2=O)C1 (configuration not stated)", "PC-3 prostate", 1.0),
    ("CCOC(=O)C1=C(C)N2C(=NC3=C(CCC/C3=C\\c3ccc(Cl)cc3)C2c2ccc(Cl)cc2)S1 (configuration not stated)", "PC-3 prostate", 1.0),
    ("CCC(c1ccccc1)c1noc(CCN(CC)CC)n1 (configuration not stated)", "PC-3 prostate", 0.0),
    ("O=C(/C=C/c1ccccc1)CC(c1ccccc1)N1CCOCC1 (configuration not stated)", "PC-3 prostate", 0.0),
    ("O=C(CN1CCCCC1)Sc1nnc2sc3ccccc3n12", "PC-3 prostate", 0.0),
]

----------
Tested on: SF-295 CNS
Test: NCI-60 one-dose screen, 48 h
Conditions: 10 µM unless noted
This is part of a sample that, as a whole, favours compounds with a hit. Of some 83,000 tested, about 20% had one in any assay. Calls of active or inactive are those of the source. How the source made its calls: active means growth percent below 10; inactive means the rest.
Outcomes: 1.0 (active), 0.0 (inactive)

# compound, answer label
measured = [
    ("COc1cc(C2CC(c3ccc(C)cc3)=NN2C(C)=O)ccc1Oc1ccnc2cc(Cl)ccc12 (stereo not drawn)", 0.0),
    ("CCc1[nH]nc(-c2ccc(OC)cc2)c1-c1ccccc1OCCN(CC)CC", 0.0),
    ("COc1cc(/C=C/C(=O)c2c(-c3ccc(Cl)cc3)nc3sc(C)nn23)cc(OC)c1OC", 0.0),
    ("COc1ccc(OC)c(/C=C/c2nc(=S)n(-c3ccc(Cl)cc3)[nH]2)c1", 0.0),
    ("Nc1nc(SCC2(CCl)COC2)c2[nH]cnc2n1", 0.0),
    ("COc1ccc(C2=NN(C(C)=O)C(c3cc(OC)c(OC)c(OC)c3)C2)cc1 (stereo not drawn)", 0.0),
    ("NC(=O)c1ncn([C@@H]2O[C@H](CO)[C@@H](O)[C@H]2O)n1", 0.0),
    ("O=C1NCC(Nc2ccc(Br)cc2Cl)C(=O)N1 (stereo not drawn)", 0.0),
    ("CC[C@H](C)C(=O)O[C@H]1C[C@@H](C)C=C2C=C[C@H](C)[C@H](CC[C@@H]3C[C@@H](O)CC(=O)O3)[C@H]21", 0.0),
    ("CC(=O)c1cc(C(=O)c2ccc3c(c2)Sc2ccccc2N3)c2c(C)cc(C)cn12", 1.0),
    ("Cc1nn(-c2ccc(Cl)cc2)c2nc3c(nc12)C(=O)C(=O)c1ccccc1-3", 0.0),
    ("COc1ccc(C(=O)C(C)Br)cc1OC (stereo not drawn)", 0.0),
    ("Cc1cc2c(cc1[N+](=O)[O-])NC(CNC(C)C)CC2 (stereo not drawn)", 0.0),
    ("CCOC(=O)c1c(NC(=O)C2CCCCC2C(=O)O)sc2c1CCCC2 (stereo not drawn)", 0.0),
    ("O=C1Cc2cc(CCN3CCN(CCOCCO)CC3)c(Cl)cc2N1Cc1ccc(-c2ccccc2-c2nn[nH]n2)cc1", 0.0),
    ("N#CCNc1ccccc1N", 0.0),
    ("CN1CCN(Cc2ccc(NC(=O)c3[nH]ncc3Nc3ccnc4ccnn34)cc2)CC1", 0.0),
    ("CCC1=C(c2ccc(OC)cc2)C(C)(C)Oc2cc(O)c(CN3CCCC3)cc21", 0.0),
    ("COc1ccc(-c2csc(NC(=O)c3cc(OC)c(OC)c(OC)c3)n2)cc1", 0.0),
    ("O=C1C2C3C=CC(O3)C2C(=O)N1Nc1ccccc1 (stereo not drawn)", 0.0),
    ("c1ccc2cc(C[n+]3ccn(CCCCCCCn4cc[n+](Cc5ccc6ccccc6c5)c4)c3)ccc2c1", 0.0),
    ("COc1ccc2c(c1)C(=O)c1c-2c(OCCN(C)C)nc2cc(OC)ccc12", 0.0),
    ("NC(=O)SCC(=O)Nc1ccccc1-c1ccccc1", 0.0),
    ("CN(CC(=O)Nc1nc2ccccc2[nH]1)S(=O)(=O)c1ccc(Cl)cc1", 0.0),
    ("Fc1ccc([C@@H]2CCNC[C@H]2COc2ccc3c(c2)OCO3)cc1", 0.0),
    ("Fc1ccc(-c2nnc(/C=C/c3cn(-c4ccccc4)nc3-c3ccccc3)o2)cc1", 0.0),
    ("CCN(CC)CCOc1ccccc1-n1c(C)ccc1-c1ccccc1", 0.0),
    ("O=C(CN1CCCCC1)Sc1nnc2sc3ccccc3n12", 0.0),
    ("CCCn1cnc2c1c(=O)n(CCCCC(C)=O)c(=O)n2C", 0.0),
    ("CN(C)CCCN1c2nc3ccccc3cc2Sc2cc3ccccc3nc21", 1.0),
    ("COc1ccc2c(c1)[nH]c(=O)c1c3cc(OC)c(OC)cc3cn21", 0.0),
    ("COc1ccc2c(c1)nc(N)c1c3cc(C)c(C)cc3cn21", 0.0),
    ("O=C(/C(=C/c1cccc([N+](=O)[O-])c1)c1ccccc1)c1ccccc1", 0.0),
    ("O=C1c2ccccc2-c2c1nc1ccccc1[n+]2[O-]", 0.0),
    ("ClC1=C(Cl)C(Cl)=C(Cl)C1=C/C=C/c1ccccc1", 1.0),
    ("CCC1=C(c2ccc(OC)cc2)C(C)(C)Oc2c1ccc(O)c2CN1CCCC1", 1.0),
    ("COC(=O)[C@]1(CCSC)N[C@H](c2cn(-c3ccccc3)nc2C)[C@@H]2C(=O)N(c3ccc(C)cc3)C(=O)[C@@H]21", 0.0),
    ("O=C1c2nsnc2C(=O)c2c(F)c(F)c(F)c(F)c21", 1.0),
    ("COc1ccc2c(c1)C(=O)c1c-2c(OCCCN(C)C)nc2cc(Br)ccc12", 0.0),
    ("CC(=O)c1ccc2c3c(n(C)c2c1)CCCC3", 0.0),
    ("CCC[C@H](N[C@@H](C)C(=O)N1[C@H](C(=O)O)C[C@@H]2CCCC[C@@H]21)C(=O)OCC", 0.0),
    ("O=C(C(=O)N1CCCCC1)c1ccc(OC2OC(CO)C(O)C(O)C2O)cc1 (stereo not drawn)", 0.0),
    ("Cn1cc(-c2csc(-c3c[nH]c4ncccc34)n2)c2cc(F)cnc21", 0.0),
]

Each recorded value in this set is attributed to PubChem BioAssay (NCI).
